Test system: MOLM14 F691L cells
Experiment Summary: MOLM14 F691L cell viability assay (Cell Titer Glo)
Format: cell-based
Condition Parameters: Homo sapiens, MOLM-14; cell viability, Cell Titer Glo, 48 hours; read-out: MOLM14 F691L IC50
Assay Metric: IC50 (nM)
Give bare numbers, in nM.

Previously resolved entries follow.
{"Compound": "COc1cc2ncc(-c3nc(N[C@H]4CNCC[C@@H]4F)ncc3F)n2nc1C1CC2(CCC2)C1 [Compound 60a]", "Measured On": "MOLM14 F691L cells", "Unit Label": "nM", "IC50": 90}
{"Compound": "COc1cc2ncc(-c3ccnc(N[C@H]4CNCC[C@@H]4F)n3)n2nc1C1CC2(CCC2)C1 [Compound 74a]", "Measured On": "MOLM14 F691L cells", "Unit Label": "nM", "IC50": 1000}
{"Compound": "COc1cc2ncc(-c3nc(N[C@H]4CNC[C@@H]4F)ncc3Cl)n2nc1C1CC1 [Compound 101a]", "Measured On": "MOLM14 F691L cells", "Unit Label": "nM", "IC50": 711}

Next:
Find the recorded IC50 belonging to COc1cc2ncc(-c3ccnc(N[C@H]4CNCC[C@@H]4F)n3)n2nc1C1COC1 [Compound 97a] and report it.
318

Data origin: patent US20260226048A1
